Tested on: A2780 (human)
Experiment: Selectivity index, ratio of IC50 for SV-40 immortalized human ovarian epithelial cells to IC50 for human A2780 cells
OBSERVATION_TYPE: selectivity ratio
I'd appreciate a reply containing only the number, no unit.

// known answers, use as guide
{"SMILES_DATA": "CC1=C(Br)C(=O)C(C(C)C)=C(Br)C1=O", "OBSERVED_MEASUREMENT": 1.5}
{"SMILES_DATA": "CC1=CC(=O)C(C(C)(C)C)=CC1=O", "OBSERVED_MEASUREMENT": 7.5}

Now for another entry.
Task: Reported selectivity ratio for "CC1=C(N(C)C)C(=O)C=CC1=O" : what is it?
Result: 1.3
